target desc: cloned human alpha-1A adrenergic receptors (α1a) (Homo sapiens, UniProt P35348)
Construct: expressed in transfected cells; host or cells: CHO cells, G418-resistant clone, pcDNA3 vector; membrane fragments
Sequence (P35348 whole entry, the tested form may be a part): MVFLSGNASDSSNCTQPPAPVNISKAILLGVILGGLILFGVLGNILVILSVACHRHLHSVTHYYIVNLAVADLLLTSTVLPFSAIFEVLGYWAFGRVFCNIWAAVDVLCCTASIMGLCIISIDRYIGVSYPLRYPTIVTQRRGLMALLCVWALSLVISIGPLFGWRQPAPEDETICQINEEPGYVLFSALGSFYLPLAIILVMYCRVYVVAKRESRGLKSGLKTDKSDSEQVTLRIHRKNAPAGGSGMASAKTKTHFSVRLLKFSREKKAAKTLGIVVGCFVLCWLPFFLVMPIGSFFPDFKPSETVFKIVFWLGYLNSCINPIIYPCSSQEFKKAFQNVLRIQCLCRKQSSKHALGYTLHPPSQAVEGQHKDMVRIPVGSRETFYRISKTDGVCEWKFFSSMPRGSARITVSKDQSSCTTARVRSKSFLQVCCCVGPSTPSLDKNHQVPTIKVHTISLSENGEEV
assay: [3H]Prazosin binding to cloned human alpha-1A adrenergic receptors expressed in CHO cells
experimental parameters: h = human; piperazines (n = 1) vs homopiperazines (n = 2); read-out: h-α1 Ki
pKi: −log10 of the molar value.
outcome measure: pKi

Worked examples follow.
O=C(NCCCCN1CCCN(c2csc3cc(F)ccc23)CC1)c1ccco1: 8.25
O=C(NCCCCN1CCCN(c2csc3cc(F)ccc23)CC1)c1cccc(F)c1: 7.38
O=C(NCCCCN1CCCN(c2csc3cc(F)ccc23)CC1)c1cc2ccccc2s1 [822224G]: 7.08
O=C(NCCCCN1CCCN(c2csc3cc(F)ccc23)CC1)c1ccc2ccccc2c1 [822223G]: 6.91

[P] CC(C)(C)c1ccc(C(=O)NCCCCN2CCCN(c3csc4cc(F)ccc34)CC2)cc1
[Q] O=C(NCCCCN1CCCN(c2csc3cc(F)ccc23)CC1)c1ccc(OC(F)(F)F)cc1
[Q] Higher pKi: P or Q ? // output: label of the selected item
[A] Q
(Q: 6.91, P: 6.68)

* * *

target desc: cloned human dopamine D3 receptors (Homo sapiens)
Construct: expressed in transfected cells; membrane homogenate
assay: [N-Methyl-3H]Spiroperidol binding to cloned human dopamine D3 receptors (Protocol 1)
experimental parameters: Table 2; read-out: D3K1
pKi: −log10 of the molar value.
outcome measure: pKi

COc1cc(C)c2cc(C(=O)NCCCCN3CCCN(c4csc5cc(F)ccc45)CC3)oc2c1OC: 8.38

[P] CN(C)c1ccccc1C(=O)NCCCCN1CCCN(c2csc3cc(F)ccc23)CC1
[Q] O=C(NCC(CO)CCN1CCN(c2csc3cc(C(F)(F)F)ccc23)CC1)c1cc2ccccc2[nH]1 (stereo not shown) [818930ES]
[R] CC(=O)Nc1ccc(C(=O)N[C@H](CO)CCCN2CCN(c3csc4cc(C(F)(F)F)ccc34)CC2)cc1
[Q] Order by pKi, ascending. Note for the reader: the ranking is given by listing the labels in the order requested.
[A] R, Q, P
(R: 6.62, Q: 7.10, P: 8.32)

* * *

target desc: cloned human dopamine D3 receptors (Homo sapiens, UniProt P35462)
Construct: expressed in transfected cells; membrane homogenate
Sequence (P35462 whole entry): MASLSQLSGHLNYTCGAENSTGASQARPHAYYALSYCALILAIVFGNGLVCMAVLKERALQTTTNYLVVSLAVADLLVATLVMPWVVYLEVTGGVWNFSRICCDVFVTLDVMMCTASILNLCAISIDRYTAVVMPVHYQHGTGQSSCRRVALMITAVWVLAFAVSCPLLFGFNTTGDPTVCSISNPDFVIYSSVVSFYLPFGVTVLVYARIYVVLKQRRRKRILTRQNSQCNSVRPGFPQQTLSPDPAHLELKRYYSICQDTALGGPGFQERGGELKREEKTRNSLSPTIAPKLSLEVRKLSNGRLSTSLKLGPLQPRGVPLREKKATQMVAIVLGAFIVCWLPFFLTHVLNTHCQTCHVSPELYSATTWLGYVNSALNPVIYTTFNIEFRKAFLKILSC
assay: [N-Methyl-3H]Spiroperidol binding to cloned human dopamine D3 receptors (Protocol 1)
experimental parameters: the 14th table; read-out: D3 Ki
pKi: −log10 of the molar value.
outcome measure: pKi

CCn1cc(C(=O)N[C@@H](CO)CCCN2CCN(c3csc4cc(C(F)(F)F)ccc34)CC2)c(=O)c2ccc(C)nc21: 6.71
O=C(NC(CO)CCCN1CCN(c2csc3cc(C(F)(F)F)ccc23)CC1)c1cc2ccc(Cl)cc2s1 (stereo not shown): 6.56
O=C(N[C@H](CO)CCCN1CCN(c2csc3cc(C(F)(F)F)ccc23)CC1)c1cc2ccc(Cl)cc2s1: 6.68
O=C(NCCCCCN1CCN(c2csc3cc(F)ccc23)CC1)c1cccs1: 8.08
O=C(NCCCCCN1CCN(c2csc3cc(C(F)(F)F)ccc23)CC1)c1cc2ccccc2o1: 7.77

[I] O=C(NCCCCCCN1CCN(c2csc3cc(C(F)(F)F)ccc23)CC1)c1cc2ccccc2[nH]1
[II] O=C(NCCCCCN1CCN(c2csc3cc(C(F)(F)F)ccc23)CC1)c1ccc2cc[nH]c2c1
[Q] Sorting ascending by pKi, which comes first: I or II ? // output: label of the selected item
[A] II
(II: 7.57, I: 8.43)

* * *

target desc: cloned human dopamine D3 receptors (Homo sapiens)
Construct: expressed in transfected cells; membrane homogenate
assay: [N-Methyl-3H]Spiroperidol binding to cloned human dopamine D3 receptors (Protocol 1)
experimental parameters: the 14th table; read-out: D3 Ki
Source text: [N-Methyl-^3H]Spiroperidol Binding to Cloned Human Dopamine D3 Receptors This assay measures the in vitro activity of compounds on cloned human dopamine (D3) receptors and predicts the direct dopamine-blocking properties of putative neuropsychiatric agents at human dopamine D3 receptors. The D3 gene was isolated from a human striatal cDNA library (Stratagene). The gene was sequenced and sub-cloned into the expression vector RC/RSV (Invitrogen). […]
outcome measure: Ki (nM)

Worked examples follow.
O=C(N[C@H](CO)CCCN1CCN(c2csc3cc(C(F)(F)F)ccc23)CC1)c1ccc2[nH]ccc2c1 [compound 815700]: 128
O=C(NCCCCCN1CCN(c2csc3cc(C(F)(F)F)ccc23)CC1)c1cccc2ccccc12 [compound 826768]: 23
O=C(NCCCCCCN1CCN(c2csc3cc(C(F)(F)F)ccc23)CC1)c1ccc2cc[nH]c2c1 [compound 826742]: 1.7
Cn1c(C(=O)NCCCCCCN2CCN(c3csc4cc(C(F)(F)F)ccc34)CC2)cc2ccccc21 [compound 826739]: 2.1
O=C(NCCCCCN1CCN(c2csc3cc(C(F)(F)F)ccc23)CC1)c1cc2ccccc2[nH]1 [compound 826794]: 11.1
O=C(NC(CO)CCCN1CCN(c2csc3cc(C(F)(F)F)ccc23)CC1)c1ccccc1C(F)(F)F (stereo not drawn) [compound 815688]: 190

[1] O=C(NCCCCCN1CCN(c2csc3cc(C(F)(F)F)ccc23)CC1)c1cccc(Cl)c1 [compound 826765]
[2] O=C(N[C@H](CO)CCCN1CCN(c2csc3cc(C(F)(F)F)ccc23)CC1)c1ccco1 [compound 815696]
[Q] Higher Ki: 1 or 2 ? // output: label of the selected item
[A] 2
(2: 871 nM, 1: 23 nM)

[P] O=C(NCCCCCN1CCN(c2csc3cc(F)ccc23)CC1)c1ccc2ccccc2c1 [compound 826779]
[Q] O=C(N[C@@H](CO)CCCN1CCN(c2csc3cc(C(F)(F)F)ccc23)CC1)c1ccc2[nH]ccc2c1 [compound 815676]
[Q] Sorting ascending by Ki, which comes first: P or Q ? // output: label of the selected item
[A] P
(P: 0.984 nM, Q: 224 nM)

[a] COc1cc(OC)cc(C(=O)NCCCCCN2CCN(c3csc4cc(F)ccc34)CC2)c1 [compound 826776]
[b] O=C(N[C@H](CO)CCCN1CCN(c2csc3cc(C(F)(F)F)ccc23)CC1)c1ccc(-c2ccccc2)cc1 [compound 815694]
[Q] Higher Ki: a or b ? // output: label of the selected item
[A] b
(b: 197 nM, a: 1.27 nM)

* * *

target desc: cloned human dopamine D3 receptors (Homo sapiens, UniProt P35462)
Construct: expressed in transfected cells; membrane homogenate
assay: [N-Methyl-3H]Spiroperidol binding to cloned human dopamine D3 receptors (Protocol 1)
experimental parameters: the 13th table, unit inferred; read-out: D3Ki
pKi: −log10 of the molar value.
outcome measure: pKi

Worked examples follow.
Cc1nnsc1C(=O)NCCCCN1CCCN(c2csc3cc(C(F)(F)F)ccc23)CC1 [S980660]: 7.36
O=C(NCCCCN1CCCN(c2csc3cc(F)ccc23)CC1)c1cccs1 [compound 822149]: 8.57

[A] O=C(NCCCCCN1CCCN(c2csc3cc(F)ccc23)CC1)c1cccc(C(F)(F)F)c1 [S984491]
[B] Cc1oc(-c2ccccc2)cc1C(=O)NCCCCN1CCCN(c2csc3cc(F)ccc23)CC1 [S981839]
[Q] Higher pKi: A or B ? // output: label of the selected item
[A] B

[1] O=C(Cc1ccc(C(F)(F)F)cc1)NCCCCN1CCCN(c2csc3cc(F)ccc23)CC1 [S982508]
[2] CS(=O)(=O)c1ccc(CC(=O)NCCCCN2CCCN(c3csc4cc(F)ccc34)CC2)cc1 [S982511]
[3] O=C(NCCCCN1CCCN(c2csc3cc(C(F)(F)F)ccc23)CC1)c1cccc2ccccc12 [S980631]
[4] O=C(NCCCCCN1CCC(c2noc3ccsc23)CC1)C1CCCC1 [compound 816205]
[Q] Order by pKi, ascending. Note for the reader: the ranking is given by listing the labels in the order requested.
[A] 4, 3, 1, 2

[1] COc1cc(OC)cc(C(=O)NCCCCCN2CCCN(c3csc4cc(F)ccc34)CC2)c1 [S984487]
[2] O=C(NCCCCCN1CCCN(c2csc3cc(F)ccc23)CC1)c1ccc2cc[nH]c2c1 [S984510]
[Q] Higher pKi: 1 or 2 ? // output: label of the selected item
[A] 2

[1] O=C(NCCCCN1CCCN(c2csc3cc(F)ccc23)CC1)c1ccno1 [S981836]
[2] O=C(NCCCCCN1CCC(c2noc3ccsc23)CC1)c1ccccc1C(F)(F)F [compound 816211]
[Q] Sorting ascending by pKi, which comes first: 1 or 2 ? // output: label of the selected item
[A] 2

* * *

target desc: cloned human dopamine D3 receptors (Homo sapiens, UniProt P35462)
Construct: expressed in transfected cells; membrane homogenate
assay: [N-Methyl-3H]Spiroperidol binding to cloned human dopamine D3 receptors (Protocol 1)
experimental parameters: read-out: D3K1
From the text: [N-Methyl-^3H]Spiroperidol Binding to Cloned Human Dopamine D3 Receptors This assay measures the in vitro activity of compounds on cloned human dopamine (D3) receptors and predicts the direct dopamine-blocking properties of putative neuropsychiatric agents at human dopamine D3 receptors. The D3 gene was isolated from a human striatal cDNA library (Stratagene). The gene was sequenced and sub-cloned into the expression vector RC/RSV (Invitrogen). […]
pKi: −log10 of the molar value.
outcome measure: pKi

Worked examples follow.
O=C(NC/C=C/CN1CCN(c2csc3cc(C(F)(F)F)ccc23)CC1)c1cccc(C(F)(F)F)c1 [compound 827724]: 6.92
COc1ccc(C(=O)NCCCCN2CCN(c3c(Cl)sc4cc(F)ccc34)CC2)cc1OC [compound 815062]: 8.39
O=C(NC(CO)CCCN1CCN(c2csc3cc(C(F)(F)F)ccc23)CC1)c1ccc2c(c1)S(=O)(=O)c1ccccc1C2=O (stereo not drawn) [compound 815685]: 6.73
CCOc1ccc(C(=O)NCCCCN2CCN(c3c(Cl)sc4cc(F)ccc34)CC2)cc1 [compound 815052]: 8.27
O=C(NC/C=C/CN1CCN(c2csc3cc(C(F)(F)F)ccc23)CC1)c1cccc(F)c1 [compound 827720]: 7.07
CCOc1ccc(C(=O)NCCCCN2CCN(c3csc4cc(C(F)(F)F)ccc34)CC2)cc1 [compound 815541]: 7.92
COc1cc(OC)cc(C(=O)NCCCCCN2CCN(c3csc4cc(C(F)(F)F)ccc34)CC2)c1 [compound 826766]: 7.96
O=C(NCCCCN1CCN(c2c(Cl)sc3cc(F)ccc23)CC1)c1ccc([N+](=O)[O-])cc1 [compound 815061]: 8.44
O=C(NCCCCN1CCN(c2c(Cl)sc3cc(F)ccc23)CC1)c1ccccc1Br [compound 815070]: 7.46
COc1ccc2[nH]c(C(=O)NCCCCCCN3CCN(c4csc5cc(C(F)(F)F)ccc45)CC3)cc2c1 [compound 826738]: 8.21

[a] COc1ccc2[nH]c(C(=O)NC[C@@H]3CCCC[C@H]3CN3CCN(c4csc5cc(C(F)(F)F)ccc45)CC3)cc2c1 [compound 826284]
[b] O=C(NCCCCN1CCN(c2c(Cl)sc3cc(F)ccc23)CC1)c1ccc(-c2ccccc2)cc1 [compound 815059]
[Q] Higher pKi: a or b ? // output: label of the selected item
[A] b
